- ASSAY_SYSTEM: TLR1/TLR2 (Mus musculus, UniProt Q9EPQ1+Q9QUN7)
- Sequence (Q9EPQ1 26-795): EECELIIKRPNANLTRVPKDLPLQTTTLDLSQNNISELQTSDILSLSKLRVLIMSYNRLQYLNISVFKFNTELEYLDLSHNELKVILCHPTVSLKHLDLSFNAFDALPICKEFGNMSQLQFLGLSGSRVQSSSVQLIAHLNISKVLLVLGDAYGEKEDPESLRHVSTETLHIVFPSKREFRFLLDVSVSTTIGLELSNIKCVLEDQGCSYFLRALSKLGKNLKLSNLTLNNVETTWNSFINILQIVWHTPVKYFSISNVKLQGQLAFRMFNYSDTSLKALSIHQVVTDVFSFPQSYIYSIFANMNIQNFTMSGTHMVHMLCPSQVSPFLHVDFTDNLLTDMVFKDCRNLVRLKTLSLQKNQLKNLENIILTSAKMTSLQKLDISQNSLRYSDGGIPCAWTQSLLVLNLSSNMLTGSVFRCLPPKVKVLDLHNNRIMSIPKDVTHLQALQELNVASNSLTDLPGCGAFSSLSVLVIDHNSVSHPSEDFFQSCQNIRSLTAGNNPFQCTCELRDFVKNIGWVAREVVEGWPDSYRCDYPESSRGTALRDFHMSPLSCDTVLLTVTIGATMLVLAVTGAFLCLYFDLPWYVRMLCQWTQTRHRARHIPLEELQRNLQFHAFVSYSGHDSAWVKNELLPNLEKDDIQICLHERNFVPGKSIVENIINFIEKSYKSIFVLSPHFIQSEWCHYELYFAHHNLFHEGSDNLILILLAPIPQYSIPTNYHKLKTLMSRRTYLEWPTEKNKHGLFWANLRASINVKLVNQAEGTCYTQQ
- Sequence (Q9QUN7 25-784): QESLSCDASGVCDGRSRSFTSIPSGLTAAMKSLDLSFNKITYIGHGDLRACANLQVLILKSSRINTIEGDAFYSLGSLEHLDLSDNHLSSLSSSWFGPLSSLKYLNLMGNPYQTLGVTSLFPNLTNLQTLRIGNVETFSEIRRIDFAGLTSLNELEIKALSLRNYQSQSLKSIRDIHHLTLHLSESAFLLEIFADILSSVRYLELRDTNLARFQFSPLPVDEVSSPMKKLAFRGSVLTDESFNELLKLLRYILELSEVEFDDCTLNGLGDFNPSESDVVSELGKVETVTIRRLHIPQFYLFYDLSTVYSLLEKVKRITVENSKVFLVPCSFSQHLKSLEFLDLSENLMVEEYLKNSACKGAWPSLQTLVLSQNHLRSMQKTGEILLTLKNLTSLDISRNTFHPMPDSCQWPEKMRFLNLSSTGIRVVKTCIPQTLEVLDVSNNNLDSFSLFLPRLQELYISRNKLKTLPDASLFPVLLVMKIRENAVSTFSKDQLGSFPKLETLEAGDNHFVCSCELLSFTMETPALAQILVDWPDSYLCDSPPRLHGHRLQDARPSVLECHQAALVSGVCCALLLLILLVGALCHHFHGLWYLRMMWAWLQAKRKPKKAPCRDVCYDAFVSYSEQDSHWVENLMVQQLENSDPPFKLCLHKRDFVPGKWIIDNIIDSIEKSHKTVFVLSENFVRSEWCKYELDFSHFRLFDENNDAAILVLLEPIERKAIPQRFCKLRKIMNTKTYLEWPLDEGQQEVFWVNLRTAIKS
- TEST_METHOD_NOTES: TNF-α release from thioglycolate-elicited mouse peritoneal macrophages (ELISA)
- CONDITION_CONTEXT: 4 h, read-out: Efficacy (magnitude) of response versus diprovocim-1 (100%), mouse macrophages
MEASUREMENT_NAME: Emax (%)

CHEMICAL_STRING	Emax (%)
NCCCCCCCCCCCCNC(=O)[C@@H]1CN(C(=O)c2ccc(C(=O)N3C[C@@H](C(=O)N[C@H]4C[C@@H]4c4ccccc4)[C@H](C(=O)N[C@H]4C[C@@H]4c4ccccc4)C3)cc2)C[C@H]1C(=O)N[C@H]1C[C@@H]1c1ccccc1	130
CC(C)(C)C(=O)NCC(=O)OCCCCCCCCCCCCNC(=O)[C@@H]1CN(C(=O)c2ccc(C(=O)N3C[C@@H](C(=O)N[C@H]4C[C@@H]4c4ccccc4)[C@H](C(=O)N[C@H]4C[C@@H]4c4ccccc4)C3)cc2)C[C@H]1C(=O)N[C@H]1C[C@@H]1c1ccccc1	110
CC(C)(C)OCC(=O)OCCCCCCCCCCCCNC(=O)[C@@H]1CN(C(=O)c2ccc(C(=O)N3C[C@@H](C(=O)N[C@H]4C[C@@H]4c4ccccc4)[C@H](C(=O)N[C@H]4C[C@@H]4c4ccccc4)C3)cc2)C[C@H]1C(=O)N[C@H]1C[C@@H]1c1ccccc1	230

[1] CC(C)(C)OC(=O)NCCOCCCCCCCCCCCCNC(=O)[C@@H]1CN(C(=O)c2ccc(C(=O)N3C[C@@H](C(=O)N[C@H]4C[C@@H]4c4ccccc4)[C@H](C(=O)N[C@H]4C[C@@H]4c4ccccc4)C3)cc2)C[C@H]1C(=O)N[C@H]1C[C@@H]1c1ccccc1
[2] O=C(O)c1ccc(C(=O)OCCCCCCCCCCCCNC(=O)[C@@H]2CN(C(=O)c3ccc(C(=O)N4C[C@@H](C(=O)N[C@H]5C[C@@H]5c5ccccc5)[C@H](C(=O)N[C@H]5C[C@@H]5c5ccccc5)C4)cc3)C[C@H]2C(=O)N[C@H]2C[C@@H]2c2ccccc2)cc1
[in] Would you mind telling me which has the lower recorded Emax between 1 and 2 ? Write down the label of the entry you select.
[out] 2

[1] O=C(NCCCCCCCCCCCCOCc1ccc([N+](=O)[O-])cc1)[C@@H]1CN(C(=O)c2ccc(C(=O)N3C[C@@H](C(=O)N[C@H]4C[C@@H]4c4ccccc4)[C@H](C(=O)N[C@H]4C[C@@H]4c4ccccc4)C3)cc2)C[C@H]1C(=O)N[C@H]1C[C@@H]1c1ccccc1
[2] COC(=O)CCCCCCCCCCCNC(=O)[C@@H]1CN(C(=O)c2ccc(C(=O)N3C[C@@H](C(=O)N[C@H]4C[C@@H]4c4ccccc4)[C@H](C(=O)N[C@H]4C[C@@H]4c4ccccc4)C3)cc2)C[C@H]1C(=O)N[C@H]1C[C@@H]1c1ccccc1
[in] // which entry reports the smaller Emax, 1 or 2 ? Please identify the chosen entry by its label.
[out] 2
(2: 100%, 1: 230%)

[1] CC(C)[C@H](NC(=O)OC(C)(C)C)C(=O)OCCCCCCCCCCCCNC(=O)[C@@H]1CN(C(=O)c2ccc(C(=O)N3C[C@@H](C(=O)N[C@H]4C[C@@H]4c4ccccc4)[C@H](C(=O)N[C@H]4C[C@@H]4c4ccccc4)C3)cc2)C[C@H]1C(=O)N[C@H]1C[C@@H]1c1ccccc1
[2] CC(C)(C)OC(=O)N1CCC[C@H]1C(=O)OCCCCCCCCCCCCNC(=O)[C@@H]1CN(C(=O)c2ccc(C(=O)N3C[C@@H](C(=O)N[C@H]4C[C@@H]4c4ccccc4)[C@H](C(=O)N[C@H]4C[C@@H]4c4ccccc4)C3)cc2)C[C@H]1C(=O)N[C@H]1C[C@@H]1c1ccccc1
[in] Field: entry with larger Emax (options 1 / 2 ). # respond with the chosen item's label
[out] 1
(1: 180%, 2: 100%)

[I] O=C(O)CCCCCCCCCCCNC(=O)[C@@H]1CN(C(=O)c2ccc(C(=O)N3C[C@@H](C(=O)N[C@H]4C[C@@H]4c4ccccc4)[C@H](C(=O)N[C@H]4C[C@@H]4c4ccccc4)C3)cc2)C[C@H]1C(=O)N[C@H]1C[C@@H]1c1ccccc1
[II] CC(=O)NCC(=O)OCCCCCCCCCCCCNC(=O)[C@@H]1CN(C(=O)c2ccc(C(=O)N3C[C@@H](C(=O)N[C@H]4C[C@@H]4c4ccccc4)[C@H](C(=O)N[C@H]4C[C@@H]4c4ccccc4)C3)cc2)C[C@H]1C(=O)N[C@H]1C[C@@H]1c1ccccc1
[III] CC(C)(C)OC(=O)CNC(=O)CCCCCCCCCCCNC(=O)[C@@H]1CN(C(=O)c2ccc(C(=O)N3C[C@@H](C(=O)N[C@H]4C[C@@H]4c4ccccc4)[C@H](C(=O)N[C@H]4C[C@@H]4c4ccccc4)C3)cc2)C[C@H]1C(=O)N[C@H]1C[C@@H]1c1ccccc1
[in] Reorder: Emax, max to min. Answer by listing the labels in the order asked for.
[out] II, I, III
(II: 180%, I: 110%, III: 70%)

* * *

- ASSAY_SYSTEM: TLR1/TLR2 (Mus musculus, UniProt Q9EPQ1+Q9QUN7)
- TEST_METHOD_NOTES: TNF-α release from thioglycolate-elicited mouse peritoneal macrophages (ELISA)
- CONDITION_CONTEXT: read-out: EC50 (nM) (mouse): EC50 TNF-α release from mouse macrophages; Table 6
MEASUREMENT_NAME: EC50 (nM)

[a] CC(C)(C)OC(=O)c1ccc(C(=O)NCC(=O)OCCCCCCCCCCCCNC(=O)[C@@H]2CN(C(=O)c3ccc(C(=O)N4C[C@@H](C(=O)N[C@H]5C[C@@H]5c5ccccc5)[C@H](C(=O)N[C@H]5C[C@@H]5c5ccccc5)C4)cc3)C[C@H]2C(=O)N[C@H]2C[C@@H]2c2ccccc2)cc1
[b] CC(C)(C)OC(=O)c1ccc(C(=O)NCCOCCCCCCCCCCCCNC(=O)[C@@H]2CN(C(=O)c3ccc(C(=O)N4C[C@@H](C(=O)N[C@H]5C[C@@H]5c5ccccc5)[C@H](C(=O)N[C@H]5C[C@@H]5c5ccccc5)C4)cc3)C[C@H]2C(=O)N[C@H]2C[C@@H]2c2ccccc2)cc1
[c] CC(C)(C)OC(=O)c1ccc(C(=O)OCCCCCCCCCCCCNC(=O)[C@@H]2CN(C(=O)c3ccc(C(=O)N4C[C@@H](C(=O)N[C@H]5C[C@@H]5c5ccccc5)[C@H](C(=O)N[C@H]5C[C@@H]5c5ccccc5)C4)cc3)C[C@H]2C(=O)N[C@H]2C[C@@H]2c2ccccc2)cc1
[in] Please put the 3 compounds above in a list ordered by falling EC50. Present the labels in the sequence the task asks for.
[out] c, a, b

* * *

- ASSAY_SYSTEM: TLR1/TLR2 (Mus musculus, UniProt Q9EPQ1+Q9QUN7)
- TEST_METHOD_NOTES: TNF-α release from thioglycolate-elicited mouse peritoneal macrophages (ELISA)
MEASUREMENT_NAME: EC50

COMPOUND	ASSAY_SYSTEM	VALUE_REPORTED
O=C(NCCOCCOCCOCCO)[C@@H]1CN(C(=O)c2ccc(C(=O)N3C[C@@H](C(=O)N[C@H]4C[C@@H]4c4ccccc4)[C@H](C(=O)N[C@H]4C[C@@H]4c4ccccc4)C3)cc2)C[C@H]1C(=O)N[C@H]1C[C@@H]1c1ccccc1 [Compound 30]	TLR1/TLR2 (Mus musculus, UniProt Q9EPQ1+Q9QUN7)	> 5000 nM
O=C(O)CCOCCOCCOCCNC(=O)[C@@H]1CN(C(=O)c2ccc(C(=O)N3C[C@@H](C(=O)N[C@H]4C[C@@H]4c4ccccc4)[C@H](C(=O)N[C@H]4C[C@@H]4c4ccccc4)C3)cc2)C[C@H]1C(=O)N[C@H]1C[C@@H]1c1ccccc1 [Compound 31]	TLR1/TLR2 (Mus musculus, UniProt Q9EPQ1+Q9QUN7)	> 5000 nM
O=C(CO)OCCCCCCCCCCCCNC(=O)[C@@H]1CN(C(=O)c2ccc(C(=O)N3C[C@@H](C(=O)N[C@H]4C[C@@H]4c4ccccc4)[C@H](C(=O)N[C@H]4C[C@@H]4c4ccccc4)C3)cc2)C[C@H]1C(=O)N[C@H]1C[C@@H]1c1ccccc1 [Compound 45]	TLR1/TLR2 (Mus musculus, UniProt Q9EPQ1+Q9QUN7)	0.7 to 5 nM
CN(C)CC(=O)OCCCCCCCCCCCCNC(=O)[C@@H]1CN(C(=O)c2ccc(C(=O)N3C[C@@H](C(=O)N[C@H]4C[C@@H]4c4ccccc4)[C@H](C(=O)N[C@H]4C[C@@H]4c4ccccc4)C3)cc2)C[C@H]1C(=O)N[C@H]1C[C@@H]1c1ccccc1 [Compound 44]	TLR1/TLR2 (Mus musculus, UniProt Q9EPQ1+Q9QUN7)	0.7 to 5 nM
O=C(COCc1ccccc1)OCCCCCCCCCCCCNC(=O)[C@@H]1CN(C(=O)c2ccc(C(=O)N3C[C@@H](C(=O)N[C@H]4C[C@@H]4c4ccccc4)[C@H](C(=O)N[C@H]4C[C@@H]4c4ccccc4)C3)cc2)C[C@H]1C(=O)N[C@H]1C[C@@H]1c1ccccc1 [Compound 46]	TLR1/TLR2 (Mus musculus, UniProt Q9EPQ1+Q9QUN7)	0.7 to 5 nM

Shifting focus to the compound that follows.
[in] // fetch EC50 given entry NCC(=O)OCCCCCCCCCCCCNC(=O)[C@@H]1CN(C(=O)c2ccc(C(=O)N3C[C@@H](C(=O)N[C@H]4C[C@@H]4c4ccccc4)[C@H](C(=O)N[C@H]4C[C@@H]4c4ccccc4)C3)cc2)C[C@H]1C(=O)N[C@H]1C[C@@H]1c1ccccc1 [Compound 43]
[out] 0.7 to 5 nM
